target_entity: Solute carrier family 22 member 1, Homo sapiens (UniProt O15245)
Sequence (O15245 whole entry, looked up): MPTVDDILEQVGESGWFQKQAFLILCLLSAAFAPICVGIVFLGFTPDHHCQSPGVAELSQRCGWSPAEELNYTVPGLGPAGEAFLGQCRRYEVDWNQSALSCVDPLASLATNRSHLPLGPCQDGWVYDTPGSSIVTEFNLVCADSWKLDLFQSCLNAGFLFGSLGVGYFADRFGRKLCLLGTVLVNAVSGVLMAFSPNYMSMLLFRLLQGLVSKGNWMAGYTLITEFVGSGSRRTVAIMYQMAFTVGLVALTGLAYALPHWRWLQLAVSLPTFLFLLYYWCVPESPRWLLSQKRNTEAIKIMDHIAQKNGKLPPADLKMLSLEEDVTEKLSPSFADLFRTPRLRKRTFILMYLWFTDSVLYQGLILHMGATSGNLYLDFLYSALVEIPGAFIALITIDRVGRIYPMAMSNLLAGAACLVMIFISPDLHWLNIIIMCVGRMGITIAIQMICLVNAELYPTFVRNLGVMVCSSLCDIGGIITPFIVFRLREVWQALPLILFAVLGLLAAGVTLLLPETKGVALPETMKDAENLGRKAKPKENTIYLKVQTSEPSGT
assay_name: TP_TRANSPORTER: inhibition of TEA uptake (TEA: 10 uM) in OCT1-expressing HeLa cells
The following molecules are shown together with reported IC50 values.
# output: bare number, implied unit µM

// solved cases for IC50 follow
Lookup: Tell me measured IC50 for CC(C)(C)NC(=O)[C@@H]1C[C@@H]2CCCC[C@@H]2CN1C[C@@H](O)[C@H](Cc1ccccc1)NC(=O)[C@H](CC(N)=O)NC(=O)c1ccc2ccccc2n1 [SAQUINAVIR] please.
Found: 8.26

Lookup: Tell me measured IC50 for CC(C)(C)NC(=O)[C@@H]1CN(Cc2cccnc2)CCN1C[C@@H](O)C[C@@H](Cc1ccccc1)C(=O)N[C@H]1c2ccccc2C[C@H]1O [INDINAVIR] please.
Found: 61.7

Would you kindly look at the next entry?
Lookup: Tell me measured IC50 for Cc1c(O)cccc1C(=O)N[C@@H](CSc1ccccc1)[C@H](O)CN1C[C@H]2CCCC[C@H]2C[C@H]1C(=O)NC(C)(C)C [NELFINAVIR] please.
Found: 21.8
